- test-system: T1, laminin-521 (human, UniProt O15230 36-3695; P55268 33-1798; P11047 34-1609)
- T1 construct: Full-length recombinant human laminin isoform (BioLamina); chains read from the isoform name
- procedure-summary: ELISA, GF coated, laminin 10 nM
parameter-measured: binding result

brain-derived neurotrophic factor (BDNF) (ligand, UniProt P23560 129-247, looked up, mature; Purchased in mature form) HSDPARRGELSVCDSISEWVTAADKKTAVDMSGGTVTVLEKVPVSKGQLKQYFYETKCNPMGYTKEGCRGIDKRHWNSQCRTTQSYVRALTMDSKKRIGWRFIRIDTSCVCTLTIKRGR : binds
fibroblast growth factor (FGF)-10 (ligand, UniProt O15520 38-208, looked up, mature; Purchased in mature form) QALGQDMVSPEATNSSSSSFSSPSSAGRHVRSYNHLQGDVRWRKLFSFTKYFLKIEKNGKVSGTKKENCPYSILEITSVEIGVVAVKAINSNYYLAMNKKGKLYGSKEFNNDCKLKERIEENGYNTYASFNWQHNGRQMYVALNGKGAPRRGQKTRRKNTSAHFLPMVVHS : binds
fibroblast growth factor (FGF)-7 (ligand, UniProt P21781 32-194, looked up, mature; Purchased in mature form) CNDMTPEQMATNVNCSSPERHTRSYDYMEGGDIRVRRLFCRTQWYLRIDKRGKVKGTQEMKNNYNIMEIRTVAVGIVAIKGVESEFYLAMNKEGKLYAKKECNEDCNFKELILENHYNTYASAKWTHNGGEMFVALNQKGIPVRGKKTKKEQKTAHFLPMAIT : binds
